What follows is a collection of MIC values obtained with Bacillus subtilis ATCC 6051.
Write the answer as a number in µM, unit excluded.

[[record]]
compound = "CC[C@H](C)[C@H](N)C(=O)N[C@@H](CC(N)=O)C(=O)N[C@@H](Cc1c[nH]c2ccccc12)C(=O)N[C@@H](CC(C)C)C(=O)N[C@@H](CCCCN)C(=O)N[C@@H](CC(C)C)C(=O)NCC(=O)N[C@@H](CCCCN)C(=O)N[C@@H](C)C(=O)N[C@H](C(=O)N[C@H](C(=O)N[C@@H](CC(=O)O)C(=O)N[C@@H](C)C(=O)N[C@@H](CC(C)C)C(N)=O)[C@@H](C)CC)[C@@H](C)CC [INWLKLGKAIIDAL]"
tested_on = "Bacillus subtilis ATCC 6051"
meas_value = 2.55


Let us examine a further case.
## Input What value of MIC on Bacillus subtilis ATCC 6051 does CC(C)C[C@H](NC(=O)[C@H](C)N)C(=O)N[C@@H](Cc1c[nH]c2ccccc12)C(=O)N[C@@H](CCCN=C(N)N)C(=O)N[C@@H](CCCN=C(N)N)C(=O)N[C@@H](CC(C)C)C(=O)N[C@@H](CC(C)C)C(=O)N[C@@H](CCCN=C(N)N)C(=O)N[C@@H](CCCN=C(N)N)C(=O)N[C@@H](CC(C)C)C(=O)N[C@@H](CC(C)C)C(=O)N[C@@H](CCCN=C(N)N)C(=O)N[C@@H](CO)C(=O)N[C@@H](C)C(=O)N[C@@H](CCCN=C(N)N)C(=O)N[C@@H](CCCN=C(N)N)C(=O)N[C@@H](CC(C)C)C(=O)NCC(N)=O [ALWRRLLRRLLRSARRLG] have?
## Output 1.88

###

What follows is a collection of MIC values obtained with Escherichia coli KCTC 1682.
Write the answer as a number in µM, unit excluded.

[[record]]
molecule = "CC[C@H](C)[C@H](NC(=O)[C@H](CCCCN)NC(=O)[C@H](CCCCN)NC(=O)[C@H](Cc1ccccc1)NC(=O)[C@H](CC(C)C)NC(=O)[C@H](CCCCN)NC(=O)[C@H](Cc1c[nH]c2ccccc12)NC(=O)[C@H](CCCCN)NC(=O)[C@@H]1CCCN1C(=O)[C@H](Cc1ccccc1)NC(=O)[C@H](CCCCN)NC(=O)[C@H](CCCCN)NC(=O)[C@H](C)NC(=O)[C@H](CC(C)C)NC(=O)[C@H](Cc1cnc[nH]1)NC(=O)[C@H](CC(C)C)NC(=O)[C@H](Cc1ccccc1)NC(=O)[C@@H](N)CCCCN)C(N)=O [KFLHLAKKFPKWKLFKKI]"
metric = "MIC"
u = "µM"
meas_value = 3.13

[[record]]
molecule = "CC[C@H](C)[C@H](N)C(=O)N[C@@H](CC(C)C)C(=O)N1CCC[C@H]1C(=O)N[C@@H](Cc1c[nH]c2ccccc12)C(=O)N[C@@H](CCCCN)C(=O)N[C@@H](Cc1c[nH]c2ccccc12)C(=O)N1CCC[C@H]1C(=O)N[C@@H](Cc1c[nH]c2ccccc12)C(=O)N[C@@H](Cc1c[nH]c2ccccc12)C(=O)N[C@@H](CCCCN)C(=O)N[C@@H](Cc1c[nH]c2ccccc12)C(=O)N[C@@H](CCCN=C(N)N)C(=O)N[C@@H](CCCN=C(N)N)C(N)=O [ILPWKWPWWKWRR]"
metric = "MIC"
u = "µM"
meas_value = 10.3

[[record]]
molecule = "CC[C@H](C)[C@H](N)C(=O)N[C@@H](CC(C)C)C(=O)N1CCC[C@H]1C(=O)N[C@@H](Cc1c[nH]c2ccccc12)C(=O)N[C@@H](CCCCN)C(=O)N[C@@H](Cc1c[nH]c2ccccc12)C(=O)N1CCC[C@H]1C(=O)N[C@@H](CCCCN)C(=O)N[C@@H](CCCCN)C(=O)N1CCC[C@H]1C(=O)N[C@@H](Cc1c[nH]c2ccccc12)C(=O)N[C@@H](CCCN=C(N)N)C(=O)N[C@@H](CCCN=C(N)N)C(N)=O [ILPWKWPKKPWRR]"
metric = "MIC"
u = "µM"
meas_value = 2.79

[[record]]
molecule = "CC(C)C[C@H](NC(=O)[C@H](Cc1ccccc1)NC(=O)[C@H](CC(C)C)NC(=O)[C@H](CS)NC(=O)[C@H](Cc1cnc[nH]1)NC(=O)[C@@H](NC(=O)[C@H](C)N)[C@@H](C)O)C(=O)N[C@@H](CCCCN)C(=O)N[C@@H](CCCCN)C(=O)N[C@@H](CCCN=C(N)N)C(N)=O [ATHCLFLKKR]"
metric = "MIC"
u = "µM"
meas_value = 15

[[record]]
molecule = "CC[C@H](C)[C@H](NC(=O)[C@H](CS)NC(=O)[C@H](Cc1cnc[nH]1)NC(=O)[C@H](C)NC(=O)[C@H](C)N)C(=O)N[C@@H](CCC(N)=O)C(=O)N[C@@H](CC(C)C)C(=O)NCC(=O)N[C@@H](CCCCN)C(=O)N[C@@H](CCCN=C(N)N)C(N)=O [AAHCIQLGKR]"
metric = "MIC"
u = "µM"
meas_value = 30

[[record]]
molecule = "CC(C)C[C@H](NC(=O)[C@H](Cc1ccccc1)NC(=O)[C@H](CCCN=C(N)N)NC(=O)[C@H](CCCCN)NC(=O)[C@H](Cc1c[nH]c2ccccc12)NC(=O)[C@H](CCCN=C(N)N)NC(=O)[C@H](CCC(N)=O)NC(=O)[C@@H](NC(=O)[C@H](Cc1c[nH]c2ccccc12)NC(=O)[C@H](CCCN=C(N)N)NC(=O)[C@H](CCCCN)NC(=O)[C@@H](N)Cc1c[nH]c2ccccc12)C(C)C)C(=O)N[C@@H](CCCN=C(N)N)C(N)=O [WKRWVQRWKRFLR]"
metric = "MIC"
u = "µM"
meas_value = 4

[[record]]
molecule = "CC(C)C[C@H](NC(=O)[C@H](CS)NC(=O)[C@H](Cc1cnc[nH]1)NC(=O)[C@H](C)NC(=O)[C@H](C)N)C(=O)N[C@@H](C)C(=O)N[C@@H](CCCCN)C(=O)N[C@@H](CCCN=C(N)N)C(=O)N[C@@H](CCCCN)C(=O)N[C@@H](CCCCN)C(N)=O [AAHCLAKRKK]"
metric = "MIC"
u = "µM"
meas_value = 30

[[record]]
molecule = "CC[C@H](C)[C@H](NC(=O)[C@H](CCCN=C(N)N)NC(=O)[C@H](CCC(N)=O)NC(=O)[C@@H](NC(=O)[C@@H](NC(=O)[C@H](CCCN=C(N)N)NC(=O)[C@H](CCCCN)NC(=O)[C@@H](N)Cc1ccccc1)[C@@H](C)CC)C(C)C)C(=O)N[C@@H](CCCCN)C(=O)N[C@@H](CC(=O)O)C(=O)N[C@@H](Cc1ccccc1)C(=O)N[C@@H](CC(C)C)C(=O)N[C@@H](CCCN=C(N)N)C(N)=O [FKRIVQRIKDFLR]"
metric = "MIC"
u = "µM"
meas_value = 16

[[record]]
molecule = "CC[C@H](C)[C@H](NC(=O)[C@H](CCCCN)NC(=O)[C@H](CCCCN)NC(=O)[C@H](Cc1ccccc1)NC(=O)[C@H](CC(C)C)NC(=O)[C@H](CCCCN)NC(=O)[C@H](CCCCN)NC(=O)[C@H](CC(C)C)NC(=O)[C@H](CCCCN)NC(=O)[C@H](CCCCN)NC(=O)[C@@H](N)Cc1ccccc1)C(=O)N[C@@H](CC(C)C)C(=O)N[C@@H](CCCCN)C(=O)N[C@@H](CC(C)C)C(=O)N[C@@H](CCCCN)C(N)=O [FKKLKKLFKKILKLK]"
metric = "MIC"
u = "µM"
meas_value = 8

[[record]]
molecule = "CC[C@H](C)[C@H](NC(=O)[C@H](CCCCN)NC(=O)[C@H](CCCCN)NC(=O)[C@H](Cc1ccccc1)NC(=O)[C@H](CC(C)C)NC(=O)[C@H](CCCCN)NC(=O)[C@H](Cc1c[nH]c2ccccc12)NC(=O)[C@@H](N)CCCCN)C(=O)N[C@@H](CCCCN)C(=O)N[C@@H](Cc1ccccc1)C(=O)N[C@@H](CC(C)C)C(=O)N[C@@H](Cc1cnc[nH]1)C(=O)N[C@@H](CO)C(=O)N[C@@H](C)C(=O)N[C@@H](CCCCN)C(=O)N[C@@H](CCCCN)C(=O)N[C@@H](Cc1ccccc1)C(N)=O [KWKLFKKIKFLHSAKKF]"
metric = "MIC"
u = "µM"
meas_value = 6.25


Let us examine a further case.
## Input What value of MIC on Escherichia coli KCTC 1682 does CC[C@H](C)[C@H](NC(=O)[C@H](CCCN=C(N)N)NC(=O)[C@@H]1CCCN1C(=O)[C@H](CC(C)C)NC(=O)[C@@H](N)CCCN=C(N)N)C(=O)N[C@@H](Cc1c[nH]c2ccccc12)C(=O)N[C@@H](Cc1c[nH]c2ccccc12)C(=O)N[C@H](C(=O)N[C@@H](CCCN=C(N)N)C(=O)N[C@H](C(=O)N1CCC[C@H]1C(=O)N[C@@H](CCCN=C(N)N)C(N)=O)C(C)C)[C@@H](C)CC [RLPRIWWIRVPR] have?
## Output 7.58
